# Test system: Pasteurella multocida CVCC399
# PROTOCOL_DESCRIPTION: in vitro susceptibility, MIC by mini broth dilution
# Type: cell-based
# CONDITION_INFO: strain CVCC399
READOUT_TYPE: MIC values, Pasteurella multocida CVCC399
Kindly format the answer as number then unit.

Asked: Name the recorded MIC values, Pasteurella multocida CVCC399 for "C#CC=C(C)NC[C@]1(O)[C@H](C)O[C@@H](O[C@H]2[C@H](C)[C@@H](O[C@@H]3O[C@H](C)C[C@H](N(C)C)[C@H]3O)[C@](C)(O)C[C@@H](C)NC[C@H](C)[C@@H](O)[C@](C)(O)[C@@H](CC)OC(=O)[C@@H]2C)C[C@@]1(C)OC" .
Given back: 0.5 ug/mi

Asked: Item "CCCN1C[C@H](C)[C@@H](O)[C@](C)(O)[C@@H](CC)OC(=O)[C@H](C)[C@@H](O[C@H]2C[C@@](C)(OC)[C@](O)(CNC(C)(C)C)[C@H](C)O2)[C@H](C)[C@@H](O[C@@H]2O[C@H](C)C[C@H](N(C)C)[C@H]2O)[C@](C)(O)C[C@H]1C" has what recorded MIC values, Pasteurella multocida CVCC399?
Given back: 0.25 ug/mi

Asked: What value of MIC values, Pasteurella multocida CVCC399 has been reported for the following compound? "CCCN1C[C@H](C)[C@@H](O)[C@](C)(O)[C@@H](CC)OC(=O)[C@H](C)[C@@H](O[C@H]2C[C@@](C)(OC)[C@](O)(CNCC(C)C)[C@H](C)O2)[C@H](C)[C@@H](O[C@@H]2O[C@H](C)C[C@H](N(C)C)[C@H]2O)[C@](C)(O)C[C@H]1C"
Given back: 0.5 ug/mi

Asked: // MIC values, Pasteurella multocida CVCC399 lookup, key: CCCNC[C@]1(O)[C@H](C)O[C@@H](O[C@H]2[C@H](C)[C@@H](O[C@@H]3O[C@H](C)C[C@H](N(C)C)[C@H]3O)[C@](C)(O)C[C@@H](C)CN[C@H](C)[C@@H](O)[C@](C)(O)[C@@H](CC)OC(=O)[C@@H]2C)C[C@@]1(C)OC [Tulathromycin, reference compound]
Given back: 0.25 ug/mi

Asked: Report MIC values, Pasteurella multocida CVCC399 for "CCCN1C[C@H](C)[C@@H](O)[C@](C)(O)[C@@H](CC)OC(=O)[C@H](C)[C@@H](O[C@H]2C[C@@](C)(OC)[C@](O)(CNN3CCOCC3)[C@H](C)O2)[C@H](C)[C@@H](O[C@@H]2O[C@H](C)C[C@H](N(C)C)[C@H]2O)[C@](C)(O)C[C@H]1C" please.
Given back: 1 ug/mi

Asked: Name the recorded MIC values, Pasteurella multocida CVCC399 for "CCCCNC[C@]1(O)[C@H](C)O[C@@H](O[C@H]2[C@H](C)[C@@H](O[C@@H]3O[C@H](C)C[C@H](N(C)C)[C@H]3O)[C@](C)(O)C[C@@H](C)N(CCC)C[C@H](C)[C@@H](O)[C@](C)(O)[C@@H](CC)OC(=O)[C@@H]2C)C[C@@]1(C)OC" .
Given back: 0.5 ug/mi

Asked: Requested field: MIC values, Pasteurella multocida CVCC399. Item: "CCCN1C[C@H](C)[C@@H](O)[C@](C)(O)[C@@H](CC)OC(=O)[C@H](C)[C@@H](O[C@H]2C[C@@](C)(OC)[C@](O)(CN(CC)CC)[C@H](C)O2)[C@H](C)[C@@H](O[C@@H]2O[C@H](C)C[C@H](N(C)C)[C@H]2O)[C@](C)(O)C[C@H]1C"
Given back: 1 ug/mi

meta.source: patent US9765105B2
